Consider the following compounds and their measured Plant response rating, B. signalgrass readings.
Tested on: surinam grass
procedure text: Test B pre/postemergence surinam grass
Assay type: in vivo, Brachiaria decumbens
condition summary: Preemergence, Rate 250 g/ha; scale 0 to 10 (0 no effect, 10 complete control)

[[record]]
compound = "CC(C)N(C(=O)n1oc(=O)n(CCCC#N)c1=O)c1ccc(F)cc1"
result = 9


Recorded result, "CCOC(Cn1c(=O)on(C(=O)N(c2ccccc2)C(C)C)c1=O)OCC" , Plant response rating, B. signalgrass: 6

Recorded result, CCOP(=O)(OCC)C(C)n1c(=O)on(C(=O)N(c2ccc(Cl)cc2)C(C)C)c1=O (stereo not shown) , Plant response rating, B. signalgrass: 2

Recorded result, CC(C)N(C(=O)n1oc(=O)n(CC2CCCCO2)c1=O)c1ccc(F)cc1 (stereo not shown) , Plant response rating, B. signalgrass: 6

* * *

Consider the following molecules and their measured Wheat plant response rating readings.
Test system: wheat
procedure text: Test B pre/postemergence wheat
Type: in vivo, Triticum aestivum
condition summary: Preemergence, Rate 500 g/ha; scale 0 to 10, 0 is no effect, 10 is complete control
Note: the reply should be a number with no unit written.

Item "CC(C)N(C(=O)n1oc(=O)n(CNC(=O)c2ccccc2)c1=O)c1ccc(F)cc1" ; assay system wheat; Wheat plant response rating reported as 0

Item "CC(C)C(=O)Cn1c(=O)on(C(=O)N(c2ccc(Cl)cc2)C(C)C)c1=O" ; assay system wheat; Wheat plant response rating reported as 0

* * *

Consider the following compounds and their measured Plant response rating, Wild oat readings.
System: wild oat
procedure text: Test E wild oat
Format: in vivo, Avena fatua
condition summary: Preemergence, Rate 62 g/ha; 0 to 100 scale, 0 no effect, 100 complete control
Note: the reply should be a number with no unit written.

Examples with answers:
[[record]]
compound = "CC(C)N(C(=O)n1oc(=O)n(C2CCCCC2)c1=O)c1ccc(F)cc1 [Compound 110]"
experimental_endpoint = "Plant response rating, Wild oat"
numeric_readout = 0

[[record]]
compound = "C=CCn1c(=O)on(C(=O)N(c2ccccc2)C(C)C)c1=O [Compound 93]"
experimental_endpoint = "Plant response rating, Wild oat"
numeric_readout = 50

[[record]]
compound = "CC(C)N(C(=O)n1oc(=O)n(CCCF)c1=O)c1ccc(F)cc1 [Compound 287]"
experimental_endpoint = "Plant response rating, Wild oat"
numeric_readout = 30


Moving on to another compound below.
Recorded result, CCn1c(=O)on(C(=O)N(c2ccc(Cl)cc2)C(C)C)c1=O [Compound 108] , Plant response rating, Wild oat: 15

* * *

Test system: wild oat
procedure text: Test E wild oat
Assay type: in vivo, Avena fatua
condition summary: Preemergence, Rate 250 g/ha
experimental endpoint: Wild oat plant response rating (0 to 100 scale)
Note: the reply should be a number with no unit written.

Examples with answers:
[[record]]
molecule = "CC1CCCCC1n1c(=O)on(C(=O)N(c2ccc(F)cc2F)C(C)C)c1=O (stereo not shown)"
numeric_readout = 30

[[record]]
molecule = "CC(C)N(C(=O)n1oc(=O)n(Cc2ccco2)c1=O)c1ccc(F)cc1"
numeric_readout = 65

[[record]]
molecule = "CC(C)N(C(=O)n1oc(=O)n(C2CCCC2)c1=O)c1ccc(F)cc1F"
numeric_readout = 70


Moving on to another molecule below.
Recorded result, "CC(C)Cn1c(=O)on(C(=O)N(c2ccc(F)cc2)C(C)C)c1=O" , Wild oat plant response rating (0 to 100 scale): 50

* * *

Tested on: crabgrass
procedure text: Test B pre/postemergence crabgrass
Format: in vivo, Digitaria sanguinalis
condition summary: Postemergence, Rate 500 g/ha; scale of 0 to 10 where 0 is no effect and 10 is complete control
Consider the following compounds and their measured Crabgrass plant response rating readings.
Note: the reply should be a number with no unit written.

[[record]]
compound = "CC(C)N(C(=O)n1oc(=O)n(C2CCCCCC2)c1=O)C1=CCCCC1 [Compound 428]"
experimental_endpoint = "Crabgrass plant response rating"
numeric_readout = 3

[[record]]
compound = "CC(C)N(C(=O)n1oc(=O)n(C(C)C2CC2)c1=O)c1ccc(F)cc1 (stereo not shown) [Compound 404]"
experimental_endpoint = "Crabgrass plant response rating"
numeric_readout = 8

[[record]]
compound = "CC(C)N(C(=O)n1oc(=O)n(C2CCOCC2)c1=O)c1ccccc1 [Compound 416]"
experimental_endpoint = "Crabgrass plant response rating"
numeric_readout = 9


Moving on to another compound below.
Item COC(OC)C(C)n1c(=O)on(C(=O)N(c2ccc(F)cc2F)C(C)C)c1=O (stereo not shown) [Compound 472] ; assay system crabgrass; Crabgrass plant response rating reported as 8

* * *

Consider the following molecules and their measured Blackgrass plant response rating readings.
Test system: blackgrass
procedure text: Test B pre/postemergence blackgrass
Type: in vivo, Alopecurus myosuroides
condition summary: Preemergence, Rate 500 g/ha; scale 0 to 10 (0 no effect, 10 complete control)
Note: the reply should be a number with no unit written.

[[record]]
molecule = "Cc1cnn(C)c1-n1c(=O)on(C(=O)N(c2ccc(F)cc2)C(C)C)c1=O [Compound 125]"
experimental_endpoint = "Blackgrass plant response rating"
numeric_readout = 0

[[record]]
molecule = "CCCn1c(=O)on(C(=O)N(c2ccc(Cl)cc2)C(C)C)c1=O [Compound 119]"
experimental_endpoint = "Blackgrass plant response rating"
numeric_readout = 9

[[record]]
molecule = "COc1nc(OC)nc(N(C(=O)n2oc(=O)n(C(C)C)c2=O)C(C)C)n1 [Compound 182]"
experimental_endpoint = "Blackgrass plant response rating"
numeric_readout = 0


Moving on to another molecule below.
Item CC(C)N(C(=O)n1oc(=O)n(C2CCCCC2)c1=O)c1ccc(Cl)cc1 [Compound 111] ; assay system blackgrass; Blackgrass plant response rating reported as 5

* * *

Test system: wild oat
procedure text: Test B pre/postemergence wild oat
Type: in vivo, Avena fatua
condition summary: Preemergence, Rate 500 g/ha; scale of 0 to 10 where 0 is no effect and 10 is complete control
experimental endpoint: Wild oats plant response rating
Note: the reply should be a number with no unit written.

[[record]]
compound = "COC(=O)CCCn1c(=O)on(C(=O)N(c2ccccc2)C(C)C)c1=O"
numeric_readout = 0

[[record]]
compound = "CC(C)N(C(=O)n1oc(=O)n(-c2ccc3ccccc3c2)c1=O)c1ccc(F)cc1F"
numeric_readout = 0

[[record]]
compound = "CC(C)N(C(=O)n1oc(=O)n(C2CCCCO2)c1=O)c1ccc(F)cc1 (centres unmarked)"
numeric_readout = 0

[[record]]
compound = "CCc1nc(C)c(C(C)n2c(=O)on(C(=O)N(c3ccc(Cl)cc3)C(C)C)c2=O)s1 (centres unmarked)"
numeric_readout = 0

[[record]]
compound = "CCc1nc(C)c(C(C)n2c(=O)on(C(=O)N(c3ccc(F)cc3F)C(C)C)c2=O)s1 (centres unmarked)"
numeric_readout = 0


Recorded result, "CCOC(=O)C=C(Cn1c(=O)on(C(=O)N(c2ccccc2)C(C)C)c1=O)OCC" , Wild oats plant response rating: 2

Recorded result, "C=CCCCn1c(=O)on(C(=O)N(c2ccc(F)cc2F)C(C)C)c1=O" , Wild oats plant response rating: 9

Recorded result, "CC(Cl)=CCn1c(=O)on(C(=O)N(c2ccccc2)C(C)C)c1=O" , Wild oats plant response rating: 0

* * *

Tested on: corn
procedure text: Test B pre/postemergence corn
Type: in vivo, Zea mays
condition summary: Preemergence, Rate 500 g/ha; scale of 0 to 10 where 0 is no effect and 10 is complete control
Hi, to clarify the labels: rule met covers Plant response rating, Corn from 5 upward, rule not met covers anything below 5.

Examples with answers:
[[record]]
compound = "CC(C)N(C(=O)n1oc(=O)n(CC2=NOCCC2)c1=O)c1ccc(F)cc1"
test_target = "corn"
class_assignment = "rule not met"

[[record]]
compound = "CC(C)N(C(=O)n1oc(=O)n(CCC(F)=C(F)F)c1=O)c1ccc(F)cc1"
test_target = "corn"
class_assignment = "rule met"

[[record]]
compound = "CC(C)N(C(=O)n1oc(=O)n(CC2CCCCO2)c1=O)c1ccc(F)cc1 (centres unmarked)"
test_target = "corn"
class_assignment = "rule met"


stdin: Reported Plant response rating, Corn at or above 5? "Cc1ccccc1-n1c(=O)on(C(=O)N(c2ccc(C(C)(C)C)cc2)C(C)C)c1=O"
stdout: rule not met

stdin: Reported Plant response rating, Corn at or above 5? CC(=O)OCC(CCl)n1c(=O)on(C(=O)N(c2ccc(F)cc2)C(C)C)c1=O (centres unmarked)
stdout: rule not met

stdin: Reported Plant response rating, Corn at or above 5? "CC(C)N(C(=O)n1oc(=O)n(CC2(C)COC2)c1=O)c1ccc(F)cc1"
stdout: rule met

stdin: Reported Plant response rating, Corn at or above 5? "Cc1ccccc1-n1c(=O)on(C(=O)N(c2ccc(N(C)C)cc2)C(C)C)c1=O"
stdout: rule not met

* * *

Test system: blackgrass
procedure text: Test B pre/postemergence blackgrass
Assay type: in vivo, Alopecurus myosuroides
condition summary: Preemergence, Rate 250 g/ha; scale 0 (no effect) to 10 (complete control)
Experimental: […] At the same time, these crop and weed species were also treated with postemergence applications of test chemicals formulated in the same manner. […] Treated plants and controls were maintained in a greenhouse for twelve to sixteen days, after which all species were compared to controls and visually evaluated. […]
experimental endpoint: Blackgrass plant response rating
Note: the reply should be a number with no unit written.

Examples with answers:
[[record]]
molecule = "C#CC(C)n1c(=O)on(C(=O)N(c2ccc(F)cc2)C(C)C)c1=O (stereo not drawn)"
experimental_endpoint = "Blackgrass plant response rating"
numeric_readout = 9

[[record]]
molecule = "CC(C)N(C(=O)n1oc(=O)n(CCC(=O)N(C)C)c1=O)c1ccc(Cl)cc1"
experimental_endpoint = "Blackgrass plant response rating"
numeric_readout = 9

[[record]]
molecule = "CCOC(CC)n1c(=O)on(C(=O)N(c2ccc(Cl)cc2)C(C)C)c1=O (stereo not drawn)"
experimental_endpoint = "Blackgrass plant response rating"
numeric_readout = 0

[[record]]
molecule = "CC(C)N(C(=O)n1oc(=O)n(C(C)C(=S)N(C)C)c1=O)c1ccc(F)cc1 (stereo not drawn)"
experimental_endpoint = "Blackgrass plant response rating"
numeric_readout = 9

[[record]]
molecule = "COP(=O)(CCn1c(=O)on(C(=O)N(c2ccc(F)cc2F)C(C)C)c1=O)OC"
experimental_endpoint = "Blackgrass plant response rating"
numeric_readout = 10


Item COC(CCl)n1c(=O)on(C(=O)N(c2ccc(F)cc2F)C(C)C)c1=O (stereo not drawn) ; assay system blackgrass; Blackgrass plant response rating reported as 9
